Field: absorption maximum. Provide a value for each of the compounds that follow.
# protocol: solvent given as SMILES
# reported-conditions: in CCO
Numbers only here, please. The scale is nm.

Ask: I have this compound here, O=C(Cc1ccccc1)OCc1ccc2c3cccc4cccc(c5cccc1c52)c43 , and I need its recorded absorption maximum.
Result: 438

Ask: Next: Nc1ccccc1C(=O)O
Result: 334

Ask: And for COC(=O)/C(C#N)=C/c1cn(-c2ccccc2)nc1-c1ccc([N+](=O)[O-])cc1 ?
Result: 335

Ask: Again, but for CCC1=C(C)C2=C(C)c3c(C)c(-c4csc(N5CCOCC5)n4)c(C)n3[B-](F)(F)[N+]2=C1C
Result: 516

Ask: Subsequent entry: CCOc1ccc2c(-c3nc(-c4cccc(Br)c4)no3)cc(=O)oc2c1
Result: 388

---

# protocol: solvent given as SMILES
# reported-conditions: in C1CCOC1
endpoint-name: absorption maximum (nm)
A number alone suffices; assume nm.

Ask: Please report the recorded absorption maximum for N#CC(C#N)=C(/C=C/c1cn(-c2ccccc2)nc1-c1ccccc1)c1ccccc1 .
Result: 402

Ask: Try this molecule too: OC1(c2ccc(-c3cccs3)s2)CCC1
Result: 311

Ask: How about CCCCCCOc1cc(C=C2c3ccccc3-c3ccccc32)c(OCCCCCC)cc1C=C1c2ccccc2C=Cc2ccccc21 ?
Result: 397

Ask: Another molecule to check: CON(OC)c1cc2c3cc(-c4c(C)cc(C)cc4C)cc4c5cc(-c6c(C)cc(C)cc6C)cc6c7cc(B(c8c(C)cc(C)cc8C)c8c(C)cc(C)cc8C)cc8c9cc(-c%10c(C)cc(C)cc%10C)cc%10c%11cc(-c%12c(C)cc(C)cc%12C)cc%12c(c1)c2c1c(c43)c(c65)c(c78)c(c9%10)c1c%11%12
Result: 452

Ask: Please do the same for CSc1sc(C(N)=O)c2nnn(C)c(=O)c12 as well.
Result: 393

Ask: Next up: CCN(CC)/C(C)=N\c1ccc2c3c(cccc13)C(=O)c1ccccc1-2
Result: 472

Ask: And then c1ccc(-p2c(-c3cccs3)cc3ccccc32)cc1 (configuration not stated) , what is it?
Result: 350

Ask: And the next one, COc1cc2c(cc1-c1ccc(C)cc1)Cc1c3c(c4c(c1-2)-c1cc(OC)c(-c2ccc(C)cc2)cc1C4)C(=O)N(CCC(C)C)C3=O ?
Result: 411

Ask: Request: O=C1c2cc(-c3ccccc3)ccc2-c2ccc(-c3ccccc3)cc21
Result: 337

Ask: Request: c1ccc(-c2nn(-c3ccccc3)c3nc4ccc(-n5c6ccccc6c6ccccc65)cc4cc23)cc1
Result: 414.94

Ask: Try this molecule too: N#Cc1c(N2CCCCC2)cc(-c2ccc3ccc4cccc5ccc2c3c45)c2c1C(=O)c1ccccc1-2
Result: 344

Ask: Would you kindly repeat that for F[B-]1(F)Oc2ccccc2-c2n(-c3ccc(C(F)(F)F)cc3)c(-c3ccccc3)c(-c3ccccc3)[n+]21 ?
Result: 327

Ask: Another: Cc1cc(C2=C(c3c(C)sc(-c4ccc(-c5nc(-c6ccccc6)c(-c6ccccc6)[nH]5)cc4)c3C)C(F)(F)C(F)(F)C2(F)F)c(C)s1
Result: 336

Ask: Same thing, different molecule: O=Cc1c(O)c(-c2nc3ccccc3s2)cc2ccccc12
Result: 352

Ask: Quick one: N#Cc1c(N2CCCC2)cc(-c2ccccc2)c2c1C(=O)c1ccccc1-2
Result: 358

Ask: Follow-up item: CC[n+]1c(/C=C/c2c([O-])ccc3ccc(=O)oc23)sc2ccccc21
Result: 607.14

Ask: How about this molecule: CC1(C)c2ccccc2N(c2cccc(S(=O)(=O)c3cccc(N4c5ccccc5C(C)(C)c5ccccc54)c3)c2)c2ccccc21
Result: 281

---

# protocol: solvent given as SMILES
# reported-conditions: in ClC(Cl)(Cl)Cl
endpoint-name: absorption maximum (nm)
Entry rule: numbers only, all in nm.

Ask: Record request: absorption maximum value, item CCN(CC)/C(C)=N\c1ccc2c3c(cccc13)C(=O)c1ccccc1-2
Result: 467

Ask: Query CCC1=C(C)C2=C(c3c(C)cc(C)nc3-c3cccs3)c3c(C)c(CC)c(C)n3[B-](F)(F)[N+]2=C1C next
Result: 534

Ask: Then COc1ccc(/C=C/C2=[O+][B-](F)(F)OC(/C=C/c3ccc(OC)c4ccccc34)=C2c2ccccc2)c2ccccc12 ?
Result: 542

Ask: Same question, COc1ccc(/C=C/C2=CC(/C=C/c3ccc(OC)c4ccccc34)=[O+][B-](F)(F)O2)c2ccccc12 this time
Result: 523

Ask: Also CC1=CC(c2ccc3ccccc3c2)=[O+][B-]2(OC(=O)C(=O)O2)O1 ?
Result: 400

Ask: And what about the compound COc1c2ccccc2c(-c2ccccc2)c2ccccc12 ?
Result: 376

Ask: Entry c1csc(-c2cnc(-c3cccs3)c3nonc23)c1 please
Result: 465

Ask: // same read-out, input: CCCCCCCCCCCCCCCC[n+]1ccc(/C=C/c2ccc(N(C)C)cc2)cc1
Result: 467.2

Ask: Ok, now CC(C)(C)c1cc2ccc3cc(C(C)(C)C)cc4c3c2c(c1)c(=O)n1c4nc2c3cc(C(C)(C)C)cc4ccc5cc(C(C)(C)C)cc(c5c43)c21
Result: 401

Ask: Then this compound: O=C1C=C(Nc2ccccc2)CCC1
Result: 299

Ask: Moving on to O=c1oc2ccccc2cc1-c1nc2ccccc2o1
Result: 360

Ask: COc1ccc2c(=O)c3c([nH]c2c1)-c1cc(Cl)ccc1NC3(C)C ?
Result: 419

---

I'd be grateful if you could share measured absorption maximum for these entries.
# protocol: solvent given as SMILES
# reported-conditions: in CO
Field format: number, assumed nm, no unit text.

Ask: Request the reported absorption maximum associated with Cc1s[c+](N2CCOCC2)sc1-c1cc(I)cc(I)c1[O-]
Result: 371

Ask: Could you do the same for O=C(O)c1ccc(-c2nc(-c3ccccc3)c(-c3ccccc3)[nH]2)cc1 , please?
Result: 312

Ask: For COc1ccc(-c2nc(-c3ccc(OC)cc3)c(-c3ccc(OC)cc3)[nH]2)cc1 then?
Result: 295

Ask: What do we get for COC(=O)c1ccc(-c2nc3ccc(N(C)C)cc3s2)cc1 ?
Result: 396

Ask: And Nc1ccc2c(c1)Cc1ccccc1-2 ?
Result: 317

Ask: Next entry: COc1ccc2c3c(OC)c4ccccc4c(OC)c3n(C)c2c1
Result: 392

---

# protocol: solvent given as SMILES
# reported-conditions: in CCCCCCC
endpoint-name: absorption maximum (nm)
Kindly provide the numeric value in nm only, without the unit symbol.

Ask: What does the record list as absorption maximum for C(/C=C/c1ccc(N(c2ccccc2)c2ccccc2)cc1)=C\c1ccncc1 ?
Result: 393

Ask: Also need O=[N+]([O-])c1ccc(/C=C/c2cn(S(=O)(=O)c3ccccc3)c3ccccc23)cc1 , thanks.
Result: 357

Ask: How about COc1c2ccccc2c(-c2ccccc2)c2ccccc12 ?
Result: 376

Ask: Consider next the compound Nc1ccc2c(c1)Cc1ccccc1-2 in the same way.
Result: 317

Ask: Next up: c1ccc2c3c(ccc2c1)-c1c2ccccc2cc2cccc-3c12
Result: 449

Ask: Quick one: C(=C\c1ccncn1)/c1ccc(-c2ccc(N(c3ccccc3)c3ccccc3)cc2)cc1
Result: 373

Ask: Next compound: c1cc2c3c(cccc3c1)-c1c-2ccc2c1ccc1ccccc12
Result: 405

Ask: Further, for c1cc(N2CCCC2)ccn1 ?
Result: 293

Ask: And the next one, O=C1OC(c2ccccc2)=N/C1=C\c1ccc(N(c2ccc(/C=C3\N=C(c4ccccc4)OC3=O)cc2)c2ccc(/C=C3/N=C(c4ccccc4)OC3=O)cc2)cc1 ?
Result: 495

Ask: Ok, now O=[N+]([O-])c1ccc(/C=C/c2c[nH]c3ccccc23)cc1
Result: 393

---

Assign absorption maximum to each entry below.
# protocol: solvent given as SMILES
# reported-conditions: in Cc1ccccc1
I only need the number, in nm, no unit after it.

Ask: Given the molecule CCN1c2ccccc2Sc2cc(/C=C(\C#N)c3ccccc3)ccc21 , what is its reported absorption maximum?
Result: 412

Ask: Try this molecule too: COc1ccc(-c2ccc3c(c2)c2cc(-c4ccc(OC)cc4)ccc2n3-c2ccc(C(=O)c3ccc4sc5ccccc5c4c3)cc2)cc1
Result: 366

Ask: What about this molecule? COc1ccc2c(=O)c3c([nH]c2c1)-c1cc(Cl)ccc1NC3(C)C
Result: 405

Ask: Moving on to the next molecule: CN(C)c1ccc(C2=Cc3cc(Cl)nc[n+]3[B-](F)(F)O2)cc1
Result: 453

Ask: Now try CCCCCCC(CCCCCC)N1C(=O)c2cccc3c(-c4ccc(C#N)cc4)ccc(c23)C1=O .
Result: 364.6

Sourced from the Deep4Chem optical property database
